- testSummary: Assay C: permeability in CACO-2 cells
- Type: in vitro ADME
- conditionLabel: human, pH 7.2; Caco-2, apical to basolateral; compounds of the invention, Table 7
assayReadout: Papp A→B at 2 h (×10⁻⁶ cm/s)
Kindly provide the numeric value in ×10⁻⁶ cm/s only, without the unit symbol.

stdin: Item Cn1cnnc1C1CCN(c2c(C#N)cccc2-c2cnc(F)c(Oc3ccccc3)c2)CC1 has what recorded Papp A→B at 2 h?
stdout: 20

stdin: Item Cn1cnnc1C1(F)CCN(c2c(C#N)cccc2-c2cnc3nn(CC(F)(F)F)cc3c2)CC1 has what recorded Papp A→B at 2 h?
stdout: 1.4

stdin: Item Cn1cnnc1C1CCN(c2c(C#N)cccc2-c2cncc(-c3ccccc3)c2)CC1 [compound 21, reference compound] has what recorded Papp A→B at 2 h?
stdout: 33

stdin: Item Cn1cnnc1C1CCN(c2c(C#N)cccc2-c2cnc(F)c(OC(F)F)c2)CC1 has what recorded Papp A→B at 2 h?
stdout: 23

stdin: Item Cn1cnnc1C1CCN(c2c(C#N)cccc2-c2cnc3nn(C)c(C(F)(F)F)c3c2)CC1 has what recorded Papp A→B at 2 h?
stdout: 2.9

stdin: Item Cn1cnnc1C1(C)CCN(c2c(C#N)cccc2-c2cccnc2)CC1 has what recorded Papp A→B at 2 h?
stdout: 9.8

stdin: Item Cn1cnnc1C1CCN(c2c(C#N)cccc2-c2ccc(F)nc2)CC1 has what recorded Papp A→B at 2 h?
stdout: 28
